Molecular target: BTK (Homo sapiens, UniProt Q06187)
Sequence (Q06187 402-655 limits assumed): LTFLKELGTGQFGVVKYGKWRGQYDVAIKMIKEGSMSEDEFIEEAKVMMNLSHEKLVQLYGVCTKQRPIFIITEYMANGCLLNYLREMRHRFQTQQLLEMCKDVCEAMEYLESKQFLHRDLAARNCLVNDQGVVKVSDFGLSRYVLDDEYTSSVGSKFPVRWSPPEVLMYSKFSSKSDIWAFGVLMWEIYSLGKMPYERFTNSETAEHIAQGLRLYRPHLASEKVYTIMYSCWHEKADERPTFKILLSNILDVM
Assay: biochemical
Details: read-out: BTK inhibition (%), 0.75 uM BTK, […] probe 3l, 15 min preincubation
Rule: 1 (yes) for inhibition at 10 µM not less than 2%, 0 (no) for anything less.

COMPOUND: O=C(O)COc1ccc(Br)cc1/C=C1\SC(=S)N(Cc2cccnc2)C1=O
CLASS ASSIGNMENT: 1 (yes)

Consider now this further compound.
Prompt: Kindly determine if inhibition at 10 µM recorded for OC[C@@H](O)C(O)[C@@H](O)CO (some centres unmarked) is above or exactly 2%.
Completion: 1 (yes)

----------
Target: BTK (Homo sapiens)
Assay: biochemical
Conditions: read-out: BTK inhibition (%), 0.75 uM BTK, […] probe 3l, 15 min preincubation
EXPERIMENTAL READOUT: inhibition at 10 µM

COMPOUND: O=C(CSc1nc2c(c(=O)n1-c1ccccc1)SCC2)Nc1ccc(-c2ccccc2)cn1
EXPERIMENTAL READOUT: inhibition at 10 µM
ASSAY VALUE: -8.5%
//
COMPOUND: COc1cc(CCC(C)=O)ccc1O
EXPERIMENTAL READOUT: inhibition at 10 µM
ASSAY VALUE: -0.8%
//
COMPOUND: Cn1cc(C(=O)[C@@H]2CCc3nc[nH]c3C2)c2ccccc21
EXPERIMENTAL READOUT: inhibition at 10 µM
ASSAY VALUE: -3.1%
//
COMPOUND: CN[C@@H](C)C(=O)N[C@H](C(=O)N1CCC[C@H]1C(=O)Nc1snnc1-c1ccccc1)C1CCCCC1
EXPERIMENTAL READOUT: inhibition at 10 µM
ASSAY VALUE: -17%
//
COMPOUND: CC(O)c1cc(C(=O)N[C@@H](C)Cn2ccc(-c3ccc(C#N)c(Cl)c3)n2)n[nH]1 (some centres unmarked)
EXPERIMENTAL READOUT: inhibition at 10 µM
ASSAY VALUE: -20.8%
//
COMPOUND: CCCCCCCCCCCCc1ccc(S(=O)(=O)Nc2nncs2)cc1
EXPERIMENTAL READOUT: inhibition at 10 µM
ASSAY VALUE: 53.8%

Prompt: Give inhibition at 10 µM for this entry on BTK (Homo sapiens): Nc1c(CC(=O)O)cccc1C(=O)c1ccc(Br)cc1
Completion: -47.6%

Prompt: Quote BTK (Homo sapiens) inhibition at 10 µM for entry CO/N=C(\C(=O)N[C@@H]1C(=O)N2C(C(=O)OC(C)OC(C)=O)=C(COC(N)=O)CS[C@H]12)c1ccco1 (some centres unmarked) .
Completion: 2.8%

Prompt: Give measured inhibition at 10 µM for COc1cc(F)c(C(C)C)cc1-c1ccc(C(F)(F)F)cc1CN1C(=O)O[C@H](c2cc(C(F)(F)F)cc(C(F)(F)F)c2)[C@@H]1C (BTK (Homo sapiens)).
Completion: 22.6%

Prompt: State inhibition at 10 µM on BTK (Homo sapiens). Entry: Cc1c(C(C)C)c(=O)n(-c2ccccc2)n1C
Completion: -11.7%

Prompt: Give BTK (Homo sapiens) inhibition at 10 µM for the following compound: O=CO
Completion: -12.4%

----------
Biological target: BTK (Homo sapiens)
Experiment: biochemical
Settings: read-out: BTK inhibition (%), 0.75 uM BTK, […] probe 3l, 15 min preincubation
Tick label 1 if inhibition at 10 µM is 30% or greater. Tick label 0 if inhibition at 10 µM is less than 30%.

Observe how each entry below is paired with its result.
ENTRY SMILES: NC(=O)Nc1cc(-c2cccc(F)c2)sc1C(=O)N[C@H]1CCCNC1
TARGET OR SYSTEM: BTK (Homo sapiens)
CLASS ASSIGNMENT: label 1

ENTRY SMILES: C#C[C@]1(O)CC[C@H]2[C@@H]3CCC4=CCCC[C@@H]4[C@H]3C(=C)C[C@@]21CC
TARGET OR SYSTEM: BTK (Homo sapiens)
CLASS ASSIGNMENT: label 0

ENTRY SMILES: Cc1[nH]c2ccccc2c1C1=C(NCCc2ccc(F)cc2)C(=O)N(C)C1=O
TARGET OR SYSTEM: BTK (Homo sapiens)
CLASS ASSIGNMENT: label 1

Prompt: Is reported inhibition at 10 µM greater than or equal to 30% here: CC(C)=CCC[C@](C)(O[C@@H]1O[C@H](CO)[C@@H](O)[C@H](O)[C@H]1O)[C@H]1CC[C@]2(C)[C@@H]1[C@H](O)C[C@@H]1[C@@]3(C)CC[C@H](O)C(C)(C)[C@@H]3[C@@H](O[C@@H]3O[C@H](CO)[C@@H](O)[C@H](O)[C@H]3O[C@@H]3OC[C@@H](O)[C@H](O)[C@H]3O)C[C@]12C
Completion: label 0

Prompt: Could you verify whether the entry CCNC(=O)c1noc(-c2cc(Cl)c(O)cc2O)c1-c1ccc(OC)cc1 shows inhibition at 10 µM of no less than 30%?
Completion: label 0

Prompt: Reported inhibition at 10 µM reaches at least 30% for NC[C@H]1O[C@H](O[C@H]2[C@H](O)[C@@H](O[C@H]3O[C@H](CO)[C@@H](O)[C@H](N)[C@H]3O)[C@H](N)C[C@@H]2N)[C@H](O)[C@@H](O)[C@@H]1O ?
Completion: label 0

Prompt: Given the entry O=C(COc1ccc(C(=O)c2ccccc2)cc1)NC1CCN(Cc2ccccc2)CC1 , answer whether its inhibition at 10 µM meets or surpasses 30%.
Completion: label 0

Prompt: Hi, just wondering whether CC(/C=C/C=C(\C)C(=O)O[C@@H]1O[C@H](CO[C@@H]2O[C@H](CO)[C@@H](O)[C@H](O)[C@H]2O)[C@@H](O)[C@H](O)[C@H]1O)=C\C=C\C=C(C)\C=C\C=C(/C)C(=O)O[C@@H]1O[C@H](CO[C@@H]2O[C@H](CO)[C@@H](O)[C@H](O)[C@H]2O)[C@@H](O)[C@H](O)[C@H]1O shows inhibition at 10 µM of 30% or higher.
Completion: label 0

Prompt: Identify whether the reported inhibition at 10 µM of the following compound is 30% or greater: COc1cc(/C=C/C(=O)O[C@H]2CC[C@]34C[C@]35CC[C@]3(C)[C@@H]([C@H](C)CCC=C(C)C)CC[C@@]3(C)[C@@H]5CC[C@H]4C2(C)C)ccc1O
Completion: label 0

----------
Target: BTK (Homo sapiens)
Assay: biochemical
Details: read-out: BTK inhibition (%), 0.75 uM BTK, […] probe 3l, 15 min preincubation
Entries annotated with measured inhibition at 10 µM
Express the result in % but write the number alone.

COMPOUND: COc1cc(O)c2c(=O)cc(-c3ccc(O)c(O)c3)oc2c1
inhibition at 10 µM, %: 61

COMPOUND: Nc1ccc(S(=O)(=O)Nc2nccs2)cc1
inhibition at 10 µM, %: 14.8

COMPOUND: O=c1[nH]cnc2nc[nH]c12
inhibition at 10 µM, %: -22.1

Prompt: // Input: O=S(=O)(NC1CCCCC1)c1ccc2c(c1)C(=NO)c1cc(S(=O)(=O)NC3CCCCC3)ccc1-2 . Output its inhibition at 10 µM only.
Completion: 1.5

Prompt: Provide measured inhibition at 10 µM value, entry: O=C(C[C@H]1NCCC[C@@H]1O)Cn1cnc2cc(Br)c(Cl)cc2c1=O
Completion: 0

Prompt: Find the measured inhibition at 10 µM of CCOC(=O)C1=C(N)Oc2ccc(Cl)cc2C1C(C#N)C(=O)OCC (stereo not drawn) and report it.
Completion: 40.9

----------
Target: BTK (Homo sapiens)
Experiment: biochemical
Conditions: read-out: BTK inhibition (%), 0.75 uM BTK, […] probe 3l, 15 min preincubation
EXPERIMENTAL READOUT: inhibition at 10 µM (%)
Express it in %; write the number only.

Prompt: Return reported inhibition at 10 µM. Input compound: O=C(/C=C\n1cnc(-c2cc(C(F)(F)F)cc(C(F)(F)F)c2)n1)NNc1cnccn1
Completion: 6.9

----------
Molecular target: BTK (Homo sapiens, UniProt Q06187)
Test: biochemical
Details: read-out: BTK inhibition (%), 0.75 uM BTK, […] probe 3l, 15 min preincubation
EXPERIMENTAL READOUT: inhibition at 10 µM
Don't forget the unit after the number, please.

COMPOUND: COc1ccc(C(=O)Nc2sc3c(c2C(N)=O)CCCC3)cc1OC
TARGET OR SYSTEM: BTK (Homo sapiens, UniProt Q06187)
EXPERIMENTAL READOUT: inhibition at 10 µM
ASSAY VALUE: 6.9%
//
COMPOUND: CC1CNC(=O)NC1=O (stereo not shown)
TARGET OR SYSTEM: BTK (Homo sapiens, UniProt Q06187)
EXPERIMENTAL READOUT: inhibition at 10 µM
ASSAY VALUE: -4.7%
//
COMPOUND: Cc1nc2ccc(NC(=O)Nc3ccnc4cccnc34)cc2o1
TARGET OR SYSTEM: BTK (Homo sapiens, UniProt Q06187)
EXPERIMENTAL READOUT: inhibition at 10 µM
ASSAY VALUE: -18.5%
//
COMPOUND: CN(C)CCc1c[nH]c2ccc(C[C@H]3COC(=O)N3)cc12
TARGET OR SYSTEM: BTK (Homo sapiens, UniProt Q06187)
EXPERIMENTAL READOUT: inhibition at 10 µM
ASSAY VALUE: 17.1%
//
COMPOUND: CCn1cc(C(=O)O)c(=O)c2cc(F)c(N3CCNCC3)cc21
TARGET OR SYSTEM: BTK (Homo sapiens, UniProt Q06187)
EXPERIMENTAL READOUT: inhibition at 10 µM
ASSAY VALUE: -12.8%
//
COMPOUND: O=c1[nH]c(=O)n([C@H]2C[C@H](O)[C@@H](CO)O2)cc1/C=C/Br
TARGET OR SYSTEM: BTK (Homo sapiens, UniProt Q06187)
EXPERIMENTAL READOUT: inhibition at 10 µM
ASSAY VALUE: 7.7%

Now for the compound whose inhibition at 10 µM we want.
Prompt: Name the recorded inhibition at 10 µM of the item C[C@@H](Nc1cc(F)cc(F)c1)c1cc(C(=O)N(C)C)cc2c(=O)cc(N3CCOCC3)oc12 in your answer.
Completion: -15.2%
